Sourced from patent US7435820B2

target: human Tie2 (Homo sapiens); construct: human Tie2 corresponding to amino acids 776-1124 of the intracellular domain was generated by PCR; made in house; host or cells: baculovirus expression system (vector pFastBacGT); assay: Tie2 kinase inhibition: phosphorylation of GST-PLC (SH2-SH3 fragments) by GST-Tie2, 33P-ATP flashplate; format: biochemical; conditions: Assay 2, read-out: Tie2 % Inhib at 10 μM (FRX) Assay 2
Observation Type: inhibition at 10 µM (%)
# output: bare number, implied unit %

-- ask Query for human Tie2 (Homo sapiens): what inhibition at 10 µM does the record show for Cc1cc2nc(-c3[nH]nc4c3CCN(C(=O)c3ccccc3NC(=O)c3ccc(Cl)cc3)C4)[nH]c2cc1C ?
-- reply 83.8

-- ask inhibition at 10 µM of Cc1cc2nc(-c3[nH]nc4c3CCN(C(=O)c3ccccc3Nc3cccc(C(F)(F)F)c3)C4)[nH]c2cc1C on human Tie2 (Homo sapiens)?
-- reply 87.2

-- ask Form field - read-out: inhibition at 10 µM; system: human Tie2 (Homo sapiens); submitted item: Cc1cc2nc(-c3[nH]nc4c3CCN(C(=O)c3ccccc3OCc3ccccc3)C4)[nH]c2cc1C
-- reply 85.9

-- ask Under human Tie2 (Homo sapiens): inhibition at 10 µM value of Cc1cc2c(cc1C)NC(c1[nH]nc3c1CCN(C(=O)c1ccc(C)c([N+](=O)[O-])c1)C3)N2 ?
-- reply 73.8

* * *

target: human Tie2 (Homo sapiens, UniProt Q02763); construct: human Tie2 corresponding to amino acids 776-1124 of the intracellular domain was generated by PCR; made in house; host or cells: baculovirus expression system (vector pFastBacGT); test: Tie2 kinase inhibition: phosphorylation of GST-PLC (SH2-SH3 fragments) by GST-Tie2, 33P-ATP flashplate; assay type: biochemical; conditions: read-out: Tie2 % Inhib. 10 μM
Sequence (Q02763 776-1124): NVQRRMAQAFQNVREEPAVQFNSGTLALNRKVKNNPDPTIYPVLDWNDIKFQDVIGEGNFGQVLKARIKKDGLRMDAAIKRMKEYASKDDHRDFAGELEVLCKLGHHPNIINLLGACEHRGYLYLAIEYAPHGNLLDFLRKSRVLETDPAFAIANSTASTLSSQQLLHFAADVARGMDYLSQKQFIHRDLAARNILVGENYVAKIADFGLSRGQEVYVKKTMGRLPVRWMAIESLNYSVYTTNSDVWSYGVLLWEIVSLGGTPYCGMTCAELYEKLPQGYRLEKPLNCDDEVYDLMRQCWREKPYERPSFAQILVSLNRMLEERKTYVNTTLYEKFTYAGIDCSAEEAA
So I've got a bunch of compounds here, and I need their inhibition at 10 µM values.
Numbers only here, please. The scale is %.

-- ask Find the recorded inhibition at 10 µM belonging to Cc1cc2nc(-c3[nH]nc4c3CCN(c3ccc(NS(=O)(=O)c5cccs5)cn3)C4)[nH]c2cc1C and report it.
-- reply 100

-- ask Record request: inhibition at 10 µM value, item Cc1cc2nc(-c3[nH]nc4c3CCN(C(=O)c3cccc(Cl)c3Cl)C4)[nH]c2cc1C
-- reply 97.4

-- ask Quick check: inhibition at 10 µM of Cc1cc2nc(-c3[nH]nc4c3CCN(C(=O)Nc3ccccc3Cl)C4)[nH]c2cc1C ?
-- reply 3.75

-- ask Query: inhibition at 10 µM; subject: Cc1cc2nc(-c3[nH]nc4c3CCN(C(=O)Nc3cccs3)C4)[nH]c2cc1C
-- reply 85.9

-- ask Using the record for Cc1cc2nc(-c3[nH]nc4c3CCN(CCc3ccccc3)C4)[nH]c2cc1C , report its inhibition at 10 µM.
-- reply 56.7

-- ask Any idea what its inhibition at 10 µM is? The compound is Cc1cc2nc(-c3[nH]nc4c3CCN(C(=O)c3ccccc3Cl)C4)[nH]c2cc1C
-- reply 96.7

-- ask Which value of inhibition at 10 µM has been reported for Cc1ccc(S(=O)(=O)N2CCc3c(n[nH]c3-c3nc4cc(C)c(C)cc4[nH]3)C2)cc1 in the records?
-- reply 88.8

-- ask Param item = COc1ccccc1NC(=O)N1CCc2c(n[nH]c2-c2nc3cc(C)c(C)cc3[nH]2)C1 ; retrieve measured inhibition at 10 µM.
-- reply 18.1

-- ask Dear colleague, I am looking for the recorded inhibition at 10 µM of the following compound: Cc1cc2nc(-c3[nH]nc4c3CCN(c3ccc(NS(=O)(=O)c5ccccc5Cl)cn3)C4)[nH]c2cc1C
-- reply 100

-- ask Return reported inhibition at 10 µM; argument: C=CCC(=O)N1CCc2c(n[nH]c2-c2nc3cc(C)c(C)cc3[nH]2)C1
-- reply 72.9

-- ask Suppose we examine the compound CCCS(=O)(=O)N1CCc2c(n[nH]c2-c2nc3cc(C)c(C)cc3[nH]2)C1 ; what inhibition at 10 µM value has been reported?
-- reply 47.5

-- ask What does the data say about its inhibition at 10 µM? Entry: Cc1cc2nc(-c3[nH]nc4c3CCN(C(=O)C(C)C)C4)[nH]c2cc1C
-- reply 83.4

-- ask I'd like to know its inhibition at 10 µM. The compound in question is Cc1cc2nc(-c3[nH]nc4c3CCN(C(=O)NCc3ccccc3)C4)[nH]c2cc1C
-- reply 64.8

-- ask For the compound shown here, Cc1cc2nc(-c3[nH]nc4c3CCN(Cc3cccc(Cl)c3Cl)C4)[nH]c2cc1C , give the reported inhibition at 10 µM.
-- reply 83.9

-- ask Requested read-out: inhibition at 10 µM. Entry: O=C(c1cccnc1)N1CCc2c(n[nH]c2-c2nc3ccccc3[nH]2)C1
-- reply 59.3

-- ask Requested read-out: inhibition at 10 µM. Entry: CCCN1CCc2c(n[nH]c2-c2nc3cc(C)c(C)cc3[nH]2)C1
-- reply 55

-- ask Requested field: inhibition at 10 µM. Item: CCCC(=O)N1CCc2c(n[nH]c2-c2nc3cc(C)c(C)cc3[nH]2)C1
-- reply 89.3

* * *

biological target: human Tie2 (Homo sapiens); construct: human Tie2 corresponding to amino acids 776-1124 of the intracellular domain was generated by PCR; made in house; host or cells: baculovirus expression system (vector pFastBacGT); experiment: Tie2 kinase inhibition: phosphorylation of GST-PLC (SH2-SH3 fragments) by GST-Tie2, 33P-ATP flashplate; assay type: biochemical; settings: Assay 1, read-out: Tie2 % Inhib at 10 μM (FRX) Assay 1
Observation Type: inhibition at 10 µM (%)
Answer format: numeric, % implied, no suffix.

-- ask Request - read-out inhibition at 10 µM | tested on human Tie2 (Homo sapiens) | compound Cc1cc2nc(-c3[nH]nc4c3CCN(C(=O)c3ccccc3NC(=O)c3ccc(Cl)cc3)C4)[nH]c2cc1C [Example P-31378-112-15]
-- reply 80.1

-- ask Form: Entry = Cc1cc2nc(-c3[nH]nc4c3CCN(C(=O)c3ccccc3CCc3ccccc3)C4)[nH]c2cc1C [Example P-31378-112-7] | System = human Tie2 (Homo sapiens) | inhibition at 10 µM = ____
-- reply 92.7

-- ask Checklist item: inhibition at 10 µM tested on human Tie2 (Homo sapiens), entry Cc1cc2nc(-c3[nH]nc4c3CCN(C(=O)c3ccccc3Oc3ccccc3)C4)[nH]c2cc1C [Example P-31378-112-5] , value?
-- reply 87.1

-- ask API: value(readout=inhibition at 10 µM, system=human Tie2 (Homo sapiens)) for record Cc1cc2nc(-c3[nH]nc4c3CCN(C(=O)c3ccccc3Cc3ccccc3)C4)[nH]c2cc1C [Example P-31378-112-6]
-- reply 92.7

-- ask Lab request: please report inhibition at 10 µM under test system human Tie2 (Homo sapiens) for Cc1cc2c(cc1C)NC(c1[nH]nc3c1CCN(C(=O)c1ccc(C)c([N+](=O)[O-])c1)C3)N2 [Example P-31378-112-14]
-- reply 69.7

-- ask Query inhibition at 10 µM on human Tie2 (Homo sapiens) for Cc1cc2nc(-c3[nH]nc4c3CCN(C(=O)c3ccccc3NCc3ccccc3)C4)[nH]c2cc1C [Example P-31378-112-8]
-- reply 87.8

-- ask Test system human Tie2 (Homo sapiens); read-out inhibition at 10 µM; what value for Cc1cc2nc(-c3[nH]nc4c3CCN(C(=O)c3ccccc3Nc3cccc(Cl)c3C)C4)[nH]c2cc1C [Example P-31375-112-10] ?
-- reply 90.6

* * *

target: human Tie2 (Homo sapiens, UniProt Q02763); construct: human Tie2 corresponding to amino acids 776-1124 of the intracellular domain was generated by PCR; made in house; host or cells: baculovirus expression system (vector pFastBacGT); test: Tie2 kinase inhibition: phosphorylation of GST-PLC (SH2-SH3 fragments) by GST-Tie2, 33P-ATP flashplate; format: biochemical; details: Assay 2, read-out: Tie2 % Inhib at 10 μM (FRX) Assay 2
I'd appreciate it if you could supply inhibition at 10 µM values for the items below.
Use % as the unit, but write only the number.

-- ask Test system human Tie2 (Homo sapiens, UniProt Q02763); read-out inhibition at 10 µM; what value for Cc1cc2nc(-c3[nH]nc4c3CCN(C(=O)c3ccccc3Nc3ccccc3)C4)[nH]c2cc1C ?
-- reply 88.1

-- ask I'm curious: which inhibition at 10 µM was measured for Cc1cc2nc(-c3[nH]nc4c3CCN(C(=O)c3ccccc3NCc3ccccc3)C4)[nH]c2cc1C tested on human Tie2 (Homo sapiens, UniProt Q02763)?
-- reply 93.3

-- ask # get_value(readout= inhibition at 10 µM, system= human Tie2 (Homo sapiens, UniProt Q02763)) for Cc1cc2nc(-c3[nH]nc4c3CCN(C(=O)c3ccccc3Cc3ccccc3)C4)[nH]c2cc1C
-- reply 93.8

-- ask Can you look up inhibition at 10 µM on human Tie2 (Homo sapiens, UniProt Q02763) for Cc1cc2nc(-c3[nH]nc4c3CCN(C(=O)c3ccccc3Nc3cccc(Cl)c3C)C4)[nH]c2cc1C ?
-- reply 87.9

-- ask Find inhibition at 10 µM (human Tie2 (Homo sapiens, UniProt Q02763)) for the entry Cc1cc2nc(-c3[nH]nc4c3CCN(C(=O)c3ccccc3CCc3ccccc3)C4)[nH]c2cc1C
-- reply 92

-- ask Param readout = inhibition at 10 µM; param system = human Tie2 (Homo sapiens, UniProt Q02763); param query = Cc1cc2nc(-c3[nH]nc4c3CCN(C(=O)c3ccccc3NCc3ccco3)C4)[nH]c2cc1C ; response: value
-- reply 88.3

-- ask Lab note: need inhibition at 10 µM for Cc1cc2nc(-c3[nH]nc4c3CCN(C(=O)c3ccccc3Oc3ccccc3)C4)[nH]c2cc1C on human Tie2 (Homo sapiens, UniProt Q02763), anyone have it?
-- reply 86.4
